tested.target: T1, ADAAD F507A (Bos taurus (bovine), UniProt Q9TTA5 221-940, F727A)
T1 sequence: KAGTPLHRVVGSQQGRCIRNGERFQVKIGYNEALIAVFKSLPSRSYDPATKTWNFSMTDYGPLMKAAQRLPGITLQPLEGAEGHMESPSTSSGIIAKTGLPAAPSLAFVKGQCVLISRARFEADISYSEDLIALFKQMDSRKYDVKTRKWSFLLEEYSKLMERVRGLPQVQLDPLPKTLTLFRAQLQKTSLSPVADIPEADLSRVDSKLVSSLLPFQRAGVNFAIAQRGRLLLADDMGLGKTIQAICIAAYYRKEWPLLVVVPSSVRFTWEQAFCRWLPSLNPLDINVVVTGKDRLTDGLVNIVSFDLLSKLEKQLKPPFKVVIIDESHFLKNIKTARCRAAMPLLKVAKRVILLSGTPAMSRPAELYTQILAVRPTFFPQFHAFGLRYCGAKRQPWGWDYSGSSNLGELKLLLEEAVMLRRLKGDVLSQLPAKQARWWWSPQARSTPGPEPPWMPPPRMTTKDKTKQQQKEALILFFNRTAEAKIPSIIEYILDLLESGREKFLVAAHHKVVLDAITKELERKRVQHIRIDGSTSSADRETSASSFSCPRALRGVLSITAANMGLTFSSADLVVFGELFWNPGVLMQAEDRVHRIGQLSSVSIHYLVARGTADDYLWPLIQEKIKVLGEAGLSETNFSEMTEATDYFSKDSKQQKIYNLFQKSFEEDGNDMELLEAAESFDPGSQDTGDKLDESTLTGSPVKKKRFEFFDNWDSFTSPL
test.method.notes: intrinsic tryptophan fluorescence titration; no ATP; Fluorescence titration (ex 295 nm, em 340 nm), one-site saturation fit; buffer, salt, pH and temperature not given in the material. Wild-type ADAAD Kd values are cited from ref 24 and not listed
reported.conditions: protein: recombinant; tags: His (Ni-NTA, pET-14b); hairpin
measured.quantity: pKd
For clarity, pKd is expressed as the negative log10 of concentration in mol/L.

Sure, the documented pKd for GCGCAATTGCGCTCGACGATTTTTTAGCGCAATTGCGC (structured_DNA) [slDNA (stem-loop DNA)] is 7.72
